Data origin, for the record: ChEMBL document CHEMBL5360648

Catalogue of molecules with associated IC50
Molecular target: 5-hydroxytryptamine receptor 2C (Homo sapiens, UniProt P28335)
Sequence (P28335 whole entry): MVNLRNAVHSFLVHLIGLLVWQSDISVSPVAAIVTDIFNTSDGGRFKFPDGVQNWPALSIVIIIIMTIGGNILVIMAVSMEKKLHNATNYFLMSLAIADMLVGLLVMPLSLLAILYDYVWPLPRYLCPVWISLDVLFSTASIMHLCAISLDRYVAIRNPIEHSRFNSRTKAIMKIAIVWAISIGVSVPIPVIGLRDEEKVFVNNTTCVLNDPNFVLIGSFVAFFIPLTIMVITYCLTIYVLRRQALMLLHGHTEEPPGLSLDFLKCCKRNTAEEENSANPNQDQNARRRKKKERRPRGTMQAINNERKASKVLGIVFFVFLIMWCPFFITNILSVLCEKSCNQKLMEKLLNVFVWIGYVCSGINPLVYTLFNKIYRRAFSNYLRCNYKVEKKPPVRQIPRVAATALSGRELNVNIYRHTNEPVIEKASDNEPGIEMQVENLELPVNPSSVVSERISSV
Assay: Antagonist activity at 5-HT2C receptor in HEK293 cells assessed as calcium mobilisation by Fluo-4 dye based assay
Note: unit nM is implicit; provide only the numeric part.

Worked set:
                                   molecule  assay_result
0  O=C1CC2(CN3CCC2CC3)Oc2c1ccc1ccccc21 (racemic)           180
1      O=C1C[C@]2(CN3CCC2CC3)Oc2cc(Br)ccc21          2300
2   O=C1C[C@@]2(CN3CCC2CC3)Oc2c1ccc1ccccc21         50000
3      COc1ccc2c(c1)O[C@]1(CC2=O)CN2CCC1CC2           520
4       O=C1C[C@]2(CN3CCC2CC3)Oc2cc(O)ccc21          2500

Report IC50 for O=C1C[C@]2(CN3CCC2CC3)Oc2c1ccc1ccccc21 please. 95

// lookup IC50 for O=C1C[C@]2(CN3CCC2CC3)Oc2cc(OCC3CC3)ccc21 1500

I have this molecule here, COc1cccc2c1C(=O)C[C@]1(CN3CCC1CC3)O2 , and I need its recorded IC50. 5000

# IC50 lookup, item Cc1ccc2c(c1)O[C@]1(CC2=O)CN2CCC1CC2 2500
